tested on: Heliothis virescens (tobacco budworm - larvae); test: Residual test, tobacco budworm - larvae (HV), Cotton leaf; assay type: in vivo; conditions: 72 h, read-out: HV grading of mortality
Property: mortality at 250 ppm; scope: individual molecules

Examples with answers:
[[record]]
molecule = "FC(F)(F)C(CCCc1cccc(Oc2ccccc2)c1)c1ccc2c(c1)CCC2 (racemic) [Compound 52]"
attribute_measured = "mortality at 250 ppm"
value_reported = "80 to 100%"

[[record]]
molecule = "CC(C)(C)c1ccc(C(CCCc2cccc(Oc3ccccc3)c2)C(F)(F)F)cc1 (racemic) [Compound 8]"
attribute_measured = "mortality at 250 ppm"
value_reported = "80 to 100%"

[[record]]
molecule = "CCOc1ccc(C(CC=Cc2ccc(F)c(Oc3ccccc3)c2)C(F)(F)F)cc1 (stereo not shown) [Compound 32]"
attribute_measured = "mortality at 250 ppm"
value_reported = "80 to 100%"


Next up:
Q: What measured mortality at 250 ppm is associated with FC(F)(F)c1ccc(C(CCCc2cccc(Oc3ccccc3)c2)C(F)(F)F)cc1 (racemic) [Compound 16] on Heliothis virescens (tobacco budworm - larvae)?
A: 80 to 100%

---

system: Musca domestica (houseflies - adults); test: Knockdown test, houseflies - adults (MD/KD), Cotton wool/sugar; type: in vivo; conditions: 500 ppm, 4 hours, read-out: MD/KD grading of knockdown
Property: pest or weed control at 500 ppm; scope: individual compounds

[[record]]
compound = "CCOc1ccc(C(=CC=Cc2cccc(Oc3ccccc3)n2)C(F)(F)F)cc1"
attribute_measured = "pest or weed control at 500 ppm"
value_reported = "50 to 79%"

[[record]]
compound = "Fc1ccc(C(CCCc2cccc(Oc3ccccc3)c2)C(F)(F)F)c(F)c1OC(F)(F)F (racemic)"
attribute_measured = "pest or weed control at 500 ppm"
value_reported = "< 50%"

[[record]]
compound = "CCOc1ccc(C(CCCc2ccc(F)c(Cc3ccccc3)c2)C(F)(F)F)cc1 (racemic)"
attribute_measured = "pest or weed control at 500 ppm"
value_reported = "80 to 100%"


Next up:
Q: Returns the measured pest or weed control at 500 ppm for the input compound. Input: `CCOc1ccc(C(=CCCc2cccc(Oc3ccccc3)c2)C(F)(F)F)cc1`
A: 80 to 100%

---

system: Musca domestica (houseflies - adults); assay: Knockdown test, houseflies - adults (MD/KD), Cotton wool/sugar; type: in vivo; conditions: 250 ppm, 4 hours, read-out: MD/KD grading of knockdown
Property: pest or weed control at 250 ppm; scope: individual molecules

[[record]]
molecule = "Fc1ccc(C(=CCCc2cccc(Oc3ccccc3)c2)C(F)(F)F)cc1"
attribute_measured = "pest or weed control at 250 ppm"
value_reported = "< 50%"

[[record]]
molecule = "FC(F)(F)Oc1ccc(C(F)(CCCc2cccc(Oc3ccccc3)c2)C(F)(F)F)cc1 (racemic)"
attribute_measured = "pest or weed control at 250 ppm"
value_reported = "80 to 100%"

[[record]]
molecule = "CCOc1ccc(C(CCCc2cccc(Oc3ccccc3)c2)C(F)(F)C(F)(F)F)cc1 (racemic)"
attribute_measured = "pest or weed control at 250 ppm"
value_reported = "80 to 100%"

[[record]]
molecule = "Fc1ccc(C(CCCc2cccc(Oc3ccccc3)c2)C(F)(F)F)cc1 (racemic)"
attribute_measured = "pest or weed control at 250 ppm"
value_reported = "< 50%"

[[record]]
molecule = "CCOc1ccc(C(C/C=C/c2cccc(Oc3ccccc3)c2)C(F)(F)F)cc1 (centres unmarked)"
attribute_measured = "pest or weed control at 250 ppm"
value_reported = "< 50%"


Q: Returns the measured pest or weed control at 250 ppm for the input molecule. Input: FC(F)(F)COc1ccc(C(CCCc2cccc(Oc3ccccc3)c2)C(F)(F)F)cc1 (racemic)
A: 80 to 100%

Q: Returns the measured pest or weed control at 250 ppm for the input molecule. Input: FC(F)(F)Oc1ccc(C(Cl)(CCCc2cccc(Oc3ccccc3)c2)C(F)(F)F)cc1 (racemic)
A: < 50%

Q: Returns the measured pest or weed control at 250 ppm for the input molecule. Input: `FC(F)(F)Oc1ccc(C(=CCCc2cccc(Oc3ccccc3)c2)C(F)(F)F)cc1`
A: < 50%

---

test system: Tetranychus urticae (spider mites - ova); experiment: Contact test, spider mites - ova (TUe), French bean leaf; format: in vivo; conditions: 144 h, 500 ppm, 6 days, read-out: TUE grading of mortality
Property: mortality at 500 ppm; scope: individual molecules

Examples with answers:
[[record]]
molecule = "CCOc1ccc(C(=CC=Cc2cccc(Oc3ccccc3)n2)C(F)(F)F)cc1"
target_or_test_system = "Tetranychus urticae (spider mites - ova)"
attribute_measured = "mortality at 500 ppm"
value_reported = "< 50%"

[[record]]
molecule = "CCOc1ccc(C(CCC(C#N)c2cccc(Oc3ccccc3)c2)C(F)(F)F)cc1 (racemic)"
target_or_test_system = "Tetranychus urticae (spider mites - ova)"
attribute_measured = "mortality at 500 ppm"
value_reported = "< 50%"

[[record]]
molecule = "FC(F)C(F)(F)Oc1ccc(C(CCCc2cccc(Oc3ccccc3)c2)C(F)(F)F)cc1 (racemic)"
target_or_test_system = "Tetranychus urticae (spider mites - ova)"
attribute_measured = "mortality at 500 ppm"
value_reported = "80 to 100%"

[[record]]
molecule = "COCc1ccc(C(=CCCc2cccc(Oc3ccccc3)c2)C(F)(F)F)cc1"
target_or_test_system = "Tetranychus urticae (spider mites - ova)"
attribute_measured = "mortality at 500 ppm"
value_reported = "< 50%"

[[record]]
molecule = "CCOc1ccc(C(CCCc2cccc(Oc3ccccc3)c2)C(F)(F)Cl)cc1 (racemic)"
target_or_test_system = "Tetranychus urticae (spider mites - ova)"
attribute_measured = "mortality at 500 ppm"
value_reported = "< 50%"

[[record]]
molecule = "Fc1ccc(C=CC=C(c2ccc(OC(F)(F)F)cc2)C(F)(F)F)cc1Cc1ccccc1"
target_or_test_system = "Tetranychus urticae (spider mites - ova)"
attribute_measured = "mortality at 500 ppm"
value_reported = "80 to 100%"

[[record]]
molecule = "FC(F)(F)C(CCCc1cccc(Oc2ccccc2)c1)c1ccc(OC(F)(F)C(F)(F)Br)cc1 (racemic)"
target_or_test_system = "Tetranychus urticae (spider mites - ova)"
attribute_measured = "mortality at 500 ppm"
value_reported = "80 to 100%"


Next up:
Q: Returns the measured mortality at 500 ppm for the input molecule. Input: OC(CCCc1cccc(Oc2ccccc2)c1)(c1ccc(OC(F)(F)F)cc1)C(F)(F)F (racemic)
A: < 50%

---

test system: Tetranychus urticae (spider mites - adult); assay: Contact test, spider mites - adult (TUa), French bean leaf; assay type: in vivo; details: 72 h, 250 ppm, 3 days, read-out: TUA grading of mortality
attribute_measured: mortality at 250 ppm

[[record]]
molecule = "FC(F)(F)c1ccc(C(CCCc2cccc(Oc3ccccc3)c2)C(F)(F)F)cc1 (racemic) [Compound 16]"
value_reported = "50 to 79%"

[[record]]
molecule = "FC(F)(F)Oc1ccc(C(CCCc2cccc(Oc3ccccc3)c2)C(F)(F)F)cc1 (racemic) [Compound 9]"
value_reported = "80 to 100%"

[[record]]
molecule = "Fc1ccc(C(=CCCc2cccc(Oc3ccccc3)c2)C(F)(F)F)cc1 [Compound 47]"
value_reported = "< 50%"


Next up:
Q: Returns the measured mortality at 250 ppm for the input molecule. Input: FC(F)(F)COc1ccc(C(CCCc2cccc(Oc3ccccc3)c2)C(F)(F)F)cc1 (racemic) [Compound 73]
A: 80 to 100%

---

system: Nilaparvata lugens (brown plant hopper - nymphs); assay: Contact test, brown plant hopper - nymphs (NL), Rice plant; type: in vivo; conditions: 72 h, 250 ppm, 3 days, read-out: NL grading of mortality
attribute_measured: mortality at 250 ppm

Q: Returns the measured mortality at 250 ppm for the input compound. Input: CCOc1ccc(C(CC=Cc2ccc(F)c(Oc3ccccc3)c2)C(F)(F)F)cc1 (centres unmarked)
A: 80 to 100%

Q: Returns the measured mortality at 250 ppm for the input compound. Input: CC(C)(C)c1ccc(C(CCCc2cccc(Oc3ccccc3)c2)C(F)(F)F)cc1 (racemic)
A: < 50%

Q: Returns the measured mortality at 250 ppm for the input compound. Input: FC(F)(F)C(CCCc1cccc(Oc2ccccc2)c1)c1ccc2c(c1)CCC2 (racemic)
A: 80 to 100%

---

tested on: Musca domestica (houseflies - adults); assay: Knockdown test, houseflies - adults (MD/KD), Cotton wool/sugar; type: in vivo; details: 500 ppm, 4 hours, read-out: MD/KD grading of knockdown
attribute_measured: pest or weed control at 500 ppm

[[record]]
compound = "CCOc1c(F)cc(C(=CCCc2cccc(Oc3ccccc3)c2)C(F)(F)F)cc1F [Compound 51]"
target_or_test_system = "Musca domestica (houseflies - adults)"
attribute_measured = "pest or weed control at 500 ppm"
value_reported = "80 to 100%"

[[record]]
compound = "CCOc1ccc(C(CC=Cc2cccc(Oc3ccccc3)n2)C(F)(F)F)cc1 (centres unmarked) [Compound 99]"
target_or_test_system = "Musca domestica (houseflies - adults)"
attribute_measured = "pest or weed control at 500 ppm"
value_reported = "80 to 100%"

[[record]]
compound = "CCOc1ccc(/C(=C/CCc2cccc(Oc3ccccc3)c2)C(F)(F)F)cc1 [Compound 4]"
target_or_test_system = "Musca domestica (houseflies - adults)"
attribute_measured = "pest or weed control at 500 ppm"
value_reported = "< 50%"

[[record]]
compound = "Fc1ccc(CCCC(c2ccc(OC(F)(F)F)cc2)C(F)F)cc1Oc1ccccc1 (racemic) [Compound 27]"
target_or_test_system = "Musca domestica (houseflies - adults)"
attribute_measured = "pest or weed control at 500 ppm"
value_reported = "80 to 100%"

[[record]]
compound = "CCOc1ccc(C(CC=Cc2c(F)c(F)c(F)c(F)c2F)C(F)(F)F)cc1 (centres unmarked) [Compound 42]"
target_or_test_system = "Musca domestica (houseflies - adults)"
attribute_measured = "pest or weed control at 500 ppm"
value_reported = "< 50%"

[[record]]
compound = "CCOc1ccc(C(=CC=Cc2ccc(F)c(Cc3ccccc3)c2)C(F)(F)F)cc1 [Compound 107]"
target_or_test_system = "Musca domestica (houseflies - adults)"
attribute_measured = "pest or weed control at 500 ppm"
value_reported = "< 50%"

[[record]]
compound = "COc1ccc(C(=CCCc2cccc(Oc3ccccc3)c2)C(F)(F)F)cc1 [Compound 46]"
target_or_test_system = "Musca domestica (houseflies - adults)"
attribute_measured = "pest or weed control at 500 ppm"
value_reported = "< 50%"


Next up:
Q: Returns the measured pest or weed control at 500 ppm for the input compound. Input: CCOc1ccc(C(CCCc2cccc(Oc3ccccc3)n2)C(F)(F)F)cc1 (centres unmarked) [Compound 98]
A: 80 to 100%
